System: KB-3-1
Experiment: Cytotoxic Profiling of Annotated Libraries Using Quantitative High-Throughput Screening (AID 1296008); further: nearly all actives have a fitted effect of over 60% in size
Details: Five cell lines viability, CellTiter-Glo ATP luminescence, 48-72 h
Inconclusive results are not listed. Calls of active or inactive are those of the source. The call rests on the fitted dose curve; in most records, active means well fitted inhibition curve with a large enough effect; inconclusive means small, poorly fitted or top-dose-only effect; inactive means flat fitted curve, though single readings scatter.
Thanks in advance; please answer with one of these: active, inactive

CC1(C)[C@H](O[C@H]2O[C@H](C(=O)O)[C@@H](O)[C@H](O)[C@H]2O[C@@H]2O[C@H](C(=O)O)[C@@H](O)[C@H](O)[C@H]2O)CC[C@@]2(C)[C@H]1CC[C@]1(C)[C@H]2C(=O)C=C2[C@H]3C[C@@](C)(C(=O)O)CC[C@]3(C)CC[C@]21C = inactive

Asked: Call for entry CO[C@@H]1[C@@H](O)[C@H](O)[C@@H](n2c3c(Cl)cccc3c3c4c(c5c6cccc(Cl)c6[nH]c5c32)C(=O)NC4=O)O[C@@H]1CO :
Given back: active

Asked: Test call for this molecule, please: Cc1coc2c1C(=O)C(=O)c1c-2ccc2c(C)cccc12
Given back: inactive

Asked: Hi, sorry to bother you, what did the test record for CC(=O)C1=C(O)C=C2Oc3c(C(C)=O)c(O)c(C)c(O)c3C2(C)C1=O (stereo not drawn) ?
Given back: inactive

Asked: Fill in: this test's call for Cn1cc(CNCC2CCN(c3ncc(C(=O)NO)cn3)CC2)c2ccccc21 is ___
Given back: active

====

Test system: MKL-2
Experiment: qHTS assay to identify novel small-molecules to repurpose for Merkel cell carcinoma treatment (AID 1296009); further: nearly all actives have a fitted effect of over 60% in size; further: potency means the concentration at half of the fitted maximal effect
Details: MCC and control cell lines, CellTiter-Glo viability, 72 h; series mostly up to 46 µM
Records with an inconclusive call do not appear. The source made the active and inactive calls. Calls come from the whole dose curve; as a rule, active = well fitted inhibition curve with a large enough effect; inconclusive = small, poorly fitted or top-dose-only effect; inactive = flat fitted curve, though single readings scatter.
observed.property: Potency

The following compounds have reported results that may help.
O=C1NCCc2[nH]c(-c3ccncc3)cc21 = 13.2 µM (active)
O=C(NC1CC1)c1cccc(-c2ccc3c(NC(=O)C4CC4)n[nH]c3c2)c1 = inactive
NC1=N[C@H]2[C@H](CS[C@H]2CCCCC(=O)O)N1 = inactive
CC(C)(O)[C@H]1CC[C@@](C)([C@H]2[C@@H](O)C[C@@]3(C)[C@@H]4C[C@H](O[C@@H]5O[C@H](CO)[C@@H](O)[C@H](O)[C@@H]5O)[C@H]5C(C)(C)[C@@H](O[C@@H]6OC[C@@H](O)[C@H](O)[C@@H]6O)CC[C@@]56C[C@@]46CC[C@]23C)O1 = inactive
COC(=O)C=CC(=O)OC = inactive
C[C@@]12C[C@@]3(O)O[C@@H](O1)[C@]1(COC(=O)c4ccccc4)[C@@H]3C[C@@]12O[C@@H]1O[C@H](CO)[C@@H](O)[C@H](O)[C@@H]1O = inactive

Report Potency for every entry below.
1. Cn1cc(-c2ccc3ncc(Cc4ccc5ncccc5c4)n3n2)cn1
2. Cc1ccccc1C(=O)Nc1ccc(C(=O)N2CCCC(O)c3cc(Cl)ccc32)c(C)c1 (configuration not stated)
3. COc1ccc(S(=O)(=O)Nc2cc(-c3c(O)ccc4ccccc34)c(O)c3ccccc23)cc1
4. CN[C@H]1[C@@H](O)[C@@H]2O[C@@H]3O[C@H](C)CC(=O)[C@]3(O)O[C@@H]2[C@@H](NC)[C@H]1O
5. C=CC(=O)Nc1cccc(Nc2nc(NC3CCC(N(C)C)CC3)nc3c2ncn3C(C)C)c1 (configuration not stated)
6. Cn1cc(C2=C(c3c4n(c5ccccc35)CCC(CN)C4)C(=O)NC2=O)c2ccccc21 (configuration not stated)
7. C[C@@H](Cc1cc2c(c(C(N)=O)c1)N(CCCO)CC2)NCCOc1ccccc1OCC(F)(F)F

Given back:
["inactive", "inactive", "26.4 µM (active)", "2.96 µM (active)", "0.0166 µM (active)", "20.9 µM (active)", "inactive"]

Dear colleague, could you send me Potency for each of the items below? Thanks.
1. Nc1ncn([C@@H]2O[C@H](CO)[C@@H](O)[C@@H]2O)c(=O)n1
2. COc1ccc(C[C@@H](C)[C@@H](C)Cc2ccc(OC)c(OC)c2)cc1OC

Given back:
1. inactive
2. 3.72 µM (active)

I need Potency for every entry listed below, if you could help.
1. CC(C=CC(=O)NO)=C[C@@H](C)C(=O)c1ccc(N(C)C)cc1
2. CC(=O)O[C@H]1C[C@@H]2CC[C@H]3[C@H]4C[C@H]([N+]5(C)CCCCC5)[C@@H](OC(C)=O)[C@@]4(C)CC[C@@H]3[C@@]2(C)C[C@H]1N1CCCCC1

Given back:
["0.166 µM (active)", "inactive"]

Hey, just so you know, these numbers are from PubChem BioAssay (NCATS).
